# Tested on: SW-620 colon
# ASSAY NOTES: NCI-60 one-dose screen, 48 h
# TEST PARAMETERS: 10 µM unless noted
Compounds without any hit were thinned out: in the full panel of roughly 83,000, 20% have a hit. Activity calls are given as the source filed them. The calls were made as follows: active = growth percent below 10; inactive = the rest.
Could you please pick one outcome from this set? active, inactive

input: Could you kindly confirm the outcome this assay logged for `COc1ccc([N+](=O)[O-])c(/C=C/C(=O)c2ccccn2)c1` ?
output: inactive

input: Could you kindly confirm the outcome this assay logged for `Cc1c(C(=O)NCc2ccccc2)[n+](=O)c2cc(F)ccc2n1[O-]` ?
output: inactive

input: Could you kindly confirm the outcome this assay logged for `CC(C)C[C@H](NC(=O)Cn1ccc(NCc2ccccc2)cc1=O)B(O)O` ?
output: active

input: Could you kindly confirm the outcome this assay logged for `Cc1cc(C(=O)CSc2nc3ccccc3c(=O)[nH]2)c(C)n1C` ?
output: inactive

input: Could you kindly confirm the outcome this assay logged for Cc1ccc2c(c1)C(C)Cc1c(N(C)C)ncnc1N2C (stereo unspecified) ?
output: inactive

input: Could you kindly confirm the outcome this assay logged for `C=C1C(=O)O[C@H]2[C@H]1CC/C(COC(=O)NCCc1cccc(OC)c1)=C\CC[C@@]1(C)O[C@@H]21` ?
output: active

input: Could you kindly confirm the outcome this assay logged for `O=C(Nc1ccc(I)cc1)c1cc([N+](=O)[O-])ccc1O` ?
output: inactive

input: Could you kindly confirm the outcome this assay logged for `COc1ccc(/C=C2\Oc3cc(OCCN4CCCC4)ccc3C2=O)c(OC)c1` ?
output: inactive

input: Could you kindly confirm the outcome this assay logged for `COc1ccc(OC)c(C(=O)c2oc3ccc(Br)cc3c2N)c1` ?
output: inactive

input: Could you kindly confirm the outcome this assay logged for `CCOc1ccc(/C=C/C=N/NC(N)=S)cc1` ?
output: inactive

input: Could you kindly confirm the outcome this assay logged for CC(=O)Nc1ccc(S(=O)(=O)N2C(=O)CCC2C(=O)Nc2ccccc2)cc1 (stereo unspecified) ?
output: inactive

---

# System: MDA-MB-435 melanoma
# ASSAY NOTES: NCI-60 one-dose screen, 48 h (100 = growth as untreated, 0 = no growth, -100 = all killed)
# TEST PARAMETERS: 10 µM unless noted
The panel holds about 83,000 compounds, 20% with a hit somewhere; the sample as a whole holds those more often.
Hi there, I'd appreciate the recorded growth for every entry that follows.
Give a bare numeral; the unit % is implied.

Documented growth of CCC(C)NCC(=O)O (stereo not given) : 101

Documented growth of COC12CC(=O)C(C(C)=O)=C(O)C1(C)c1c(O)c(C)c(O)c(C(C)=O)c1O2 (stereo not given) : 87.3

Documented growth of `O=[N+]([O-])c1cccc(-c2cc(-c3cc(Br)ccc3O)[nH]n2)c1` : 13.5

Documented growth of `COc1cc(OC)c(C(=O)/C=C/c2ccc(C(F)(F)F)cc2)c(OC)c1` : 23.8

Documented growth of CC(C(=O)n1cc(-c2ccccc2)c(-c2ccccc2)c1)c1ccccc1 (stereo not given) : 104

Documented growth of `COc1cc(NC(=O)CSc2nc3ccc(C)cc3c(=O)n2-c2ccccc2)cc(OC)c1OC` : 47.5

Documented growth of CCN1C(=O)N(CC)C2C1NN=c1s/c(=C\c3ccccn3)c(=O)n12 (stereo not given) : -62.1

Documented growth of `COc1ccc(S(=O)(=O)Nc2cc(/C=C\c3cc(OC)c(OC)c(OC)c3)cc(OC)c2OC)cc1OC` : -66.5

Documented growth of `O=[N+]([O-])c1ccc(S(=O)(=O)N2CCN(c3ccnc4cc(Cl)ccc34)CC2)c([N+](=O)[O-])c1` : 98.1

Documented growth of CC(Br)C(Br)c1cc2c(cc1Br)OCO2 (stereo not given) : 97.9

---

# Test system: OVCAR-4 ovarian
# ASSAY NOTES: NCI-60 one-dose screen, 48 h (100 = growth as untreated, 0 = no growth, -100 = all killed)
# TEST PARAMETERS: 10 µM unless noted
The panel holds about 83,000 compounds, 20% with a hit somewhere; the sample as a whole holds those more often.
Hi there, I'd appreciate the recorded growth for every entry that follows.
Give a bare numeral; the unit % is implied.

Documented growth of C#CCC1(c2ccc(F)c(F)c2)NS(=O)(=O)c2ccccc21 (stereo unspecified) : 105

Documented growth of `CCCCCCc1nc2c(c(C)nn2-c2ccccc2)c2c1CCCCC2` : 115

Documented growth of N#CC1=C(N)OC2=C(C(=O)CCC2)C1c1ccco1 (stereo unspecified) : 106

Documented growth of `COc1cc2nc(N3CCC[C@@H](NC4=CC(=O)c5ccccc5C4=O)C3)nc(N)c2cc1OC` : 81.5

Documented growth of N#CC1=C(N)n2nc(-c3ccncc3)nc2NC1c1cccc2ccccc12 (stereo unspecified) : 80.4

Documented growth of `O=C(Nc1cccc(C(F)(F)F)c1)Nc1ccc(OCc2nnc(-c3ccccc3)o2)c(F)c1` : 34.5

---

# Test system: CAKI-1 renal
# ASSAY NOTES: NCI-60 one-dose screen, 48 h (100 = growth as untreated, 0 = no growth, -100 = all killed)
# TEST PARAMETERS: 10 µM unless noted
The panel holds about 83,000 compounds, 20% with a hit somewhere; the sample as a whole holds those more often.
PARAMETER: growth (%)
Give a bare numeral; the unit % is implied.

Record for `COc1cc2nc(N3CCC[C@@H](NC4=CC(=O)c5ccccc5C4=O)C3)nc(N)c2cc1OC` under target or system CAKI-1 renal: growth reported as 64.9

Record for `CCNc1nc(N2CC(=O)Nc3cc(OC)ccc32)c2ccccc2n1` under target or system CAKI-1 renal: growth reported as 22.6

Record for COc1ccc(C2NC3=C(CCCC3)C(C#N)(C#N)C2(C#N)C#N)cc1 (stereo not given) under target or system CAKI-1 renal: growth reported as 78

Record for `Cc1ccc2nc(-c3c(CCCO)noc3N)[nH]c(=O)c2c1` under target or system CAKI-1 renal: growth reported as 97.1

Record for `O=S(=O)(NCCCNc1nccc(-c2c(-c3ccc(O)cc3)nc3sccn23)n1)c1ccc(F)cc1` under target or system CAKI-1 renal: growth reported as 11.6

---

# Test system: HS 578T breast
# ASSAY NOTES: NCI-60 one-dose screen, 48 h
# TEST PARAMETERS: 10 µM unless noted
Compounds without any hit were thinned out: in the full panel of roughly 83,000, 20% have a hit. Activity calls are given as the source filed them. How the source made its calls: active means growth percent below 10; inactive means the rest.
Could you please pick one outcome from this set? label 1 for active, label 0 for inactive

input: Could you kindly confirm the outcome this assay logged for `COc1ccc(/C=C2\Oc3cc(OCCN4CCCC4)ccc3C2=O)c(OC)c1` ?
output: label 0

input: Could you kindly confirm the outcome this assay logged for COc1cc(/C=C2\CCCC3=C2NC(C)=NC3c2cc(OC)c(OC)c(OC)c2)cc(OC)c1OC (stereo unspecified) ?
output: label 0

input: Could you kindly confirm the outcome this assay logged for Clc1ccc2c(c1)NC1(CCSc3ccccc31)n1nccc1-2 (stereo unspecified) ?
output: label 0

input: Could you kindly confirm the outcome this assay logged for `COc1ccc(/C=C\c2cc(OC)c(OC)c(OC)c2)c(NS(=O)(=O)c2ccc(C(C)(C)C)cc2)c1O` ?
output: label 0

input: Could you kindly confirm the outcome this assay logged for COc1ccc(C2CC(c3cccs3)=NN2c2ccc(S(=O)(=O)NC(=O)Nc3ccc(C)cc3)cc2)cc1 (stereo unspecified) ?
output: label 0

input: Could you kindly confirm the outcome this assay logged for `Cc1ccc2c(c1)C(=O)C(c1c(-c3[nH]c(=O)c4ccc(C)cc4c3O)c(O)c3ccccc3c1O)=NC2=O` ?
output: label 0

input: Could you kindly confirm the outcome this assay logged for CCN1C(=S)N(CC)C2Nn3c(s/c(=C4\C(=O)N(C)c5ccccc54)c3=O)=NC21 (stereo unspecified) ?
output: label 0

input: Could you kindly confirm the outcome this assay logged for NC(=O)c1c(NC(=O)c2ccc(OCC3CCCO3)cc2)sc2c1CCCC2 (stereo unspecified) ?
output: label 1

input: Could you kindly confirm the outcome this assay logged for `Cc1cc(C(=O)CSc2nc3ccccc3c(=O)[nH]2)c(C)n1C` ?
output: label 1

input: Could you kindly confirm the outcome this assay logged for `O=C(CNC1CCCCC1)Nc1ccc(-c2nc3ccccc3s2)cc1` ?
output: label 0

input: Could you kindly confirm the outcome this assay logged for `COc1ccc(OC)c(/C=C2\Oc3cc(OCCN4CCCC4)ccc3C2=O)c1` ?
output: label 0

input: Could you kindly confirm the outcome this assay logged for `CCN(CC)CCC(=O)c1cccc2ccccc12` ?
output: label 0

input: Could you kindly confirm the outcome this assay logged for `ClC1=C(Cl)C(Cl)=C(Cl)C1=Cc1ccc(Cl)cc1Cl` ?
output: label 0

input: Could you kindly confirm the outcome this assay logged for `c1ccc2nc(-c3ccc4ccccc4n3)ccc2c1` ?
output: label 0

input: Could you kindly confirm the outcome this assay logged for `Cc1oc2nc[nH]c(=O)c2c1C(=O)/C=C/c1ccc(Cl)cc1` ?
output: label 0

input: Could you kindly confirm the outcome this assay logged for Cc1ccc(S(=O)(=O)OC2COCOC2C(OS(=O)(=O)c2ccc(C)cc2)C2OCOCC2OS(=O)(=O)c2ccc(C)cc2)cc1 (stereo unspecified) ?
output: label 0

input: Could you kindly confirm the outcome this assay logged for CCCCCCCCCN1C(=O)/C(=c2\sc3n(c2=O)C2C(NN=3)N(CC)C(=O)N2CC)c2ccccc21 (stereo unspecified) ?
output: label 0

input: Could you kindly confirm the outcome this assay logged for CC(Br)C(Br)c1cc2c(cc1Br)OCO2 (stereo unspecified) ?
output: label 1

input: Could you kindly confirm the outcome this assay logged for `C=CCOc1cccc(/C=C/C(=O)c2sc(Nc3cccnc3)nc2C)c1` ?
output: label 0

input: Could you kindly confirm the outcome this assay logged for N#CC1=C(N)OC2=C(C(=O)CCC2)C1c1ccco1 (stereo unspecified) ?
output: label 0

input: Could you kindly confirm the outcome this assay logged for `Nc1c(C(=O)Nc2ccccc2)sc2nc3c(cc12)CCC3` ?
output: label 0
